# subject of test: Mu-type opioid receptor (Rattus norvegicus)
# Sequence (P33535 whole entry): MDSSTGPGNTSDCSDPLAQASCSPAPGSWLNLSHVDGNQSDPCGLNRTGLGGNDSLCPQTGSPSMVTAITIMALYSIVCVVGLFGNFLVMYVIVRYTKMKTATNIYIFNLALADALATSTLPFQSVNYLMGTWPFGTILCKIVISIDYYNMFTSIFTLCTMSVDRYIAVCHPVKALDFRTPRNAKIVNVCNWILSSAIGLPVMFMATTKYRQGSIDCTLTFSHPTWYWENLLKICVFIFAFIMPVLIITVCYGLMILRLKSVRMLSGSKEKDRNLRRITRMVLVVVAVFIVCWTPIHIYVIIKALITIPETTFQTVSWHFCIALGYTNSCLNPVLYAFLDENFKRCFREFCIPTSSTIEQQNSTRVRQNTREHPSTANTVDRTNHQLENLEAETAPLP
# assay notes: Agonist activity at rat mu opioid receptor expressed in rat C6 cell membrane assessed as stimulation of [35S]GTPgammaS binding
One threshold, 1 nM, splits the recorded EC50 values: lower ones are Criterion met, equal or higher ones are Criterion not met.

structure smiles: O=C(/C=C/c1ccccc1)N[C@@H]1CC[C@@]2(OCc3ccccc3)[C@H]3Cc4ccc(O)c5c4[C@@]2(CCN3CC2CC2)[C@H]1O5
subject of test: Mu-type opioid receptor (Rattus norvegicus)
class assignment: Criterion not met

structure smiles: O=C(/C=C/c1cccc([N+](=O)[O-])c1)N[C@@H]1CC[C@@]2(O)[C@H]3Cc4ccc(O)c5c4[C@@]2(CCN3CC2CC2)[C@H]1O5
subject of test: Mu-type opioid receptor (Rattus norvegicus)
class assignment: Criterion met

structure smiles: C=CCO[C@@]12CC[C@@H](NC(=O)/C=C/c3ccccc3)[C@@H]3Oc4c(O)ccc5c4[C@@]31CCN(CC1CC1)[C@@H]2C5
subject of test: Mu-type opioid receptor (Rattus norvegicus)
class assignment: Criterion met

structure smiles: O=C(/C=C/c1ccccc1)N[C@@H]1CC[C@@]2(O)[C@H]3Cc4ccc(O)c5c4[C@@]2(CCN3CC2CC2)[C@H]1O5
subject of test: Mu-type opioid receptor (Rattus norvegicus)
class assignment: Criterion not met

structure smiles: O=C(/C=C/c1ccccc1Cl)N[C@@H]1CC[C@@]2(O)[C@H]3Cc4ccc(O)c5c4[C@@]2(CCN3CC2CC2)[C@H]1O5
subject of test: Mu-type opioid receptor (Rattus norvegicus)
class assignment: Criterion not met

structure smiles: O=C(/C=C/c1ccccc1[N+](=O)[O-])N[C@@H]1CC[C@@]2(O)[C@H]3Cc4ccc(O)c5c4[C@@]2(CCN3CC2CC2)[C@H]1O5
subject of test: Mu-type opioid receptor (Rattus norvegicus)
class assignment: Criterion met

structure smiles: O=C(/C=C/c1ccccc1)N[C@@H]1CC[C@@]2(OC(=O)Cc3ccccc3)[C@H]3Cc4ccc(O)c5c4[C@@]2(CCN3CC2CC2)[C@H]1O5
subject of test: Mu-type opioid receptor (Rattus norvegicus)
class assignment: Criterion not met
